src = the supplement of paper PMC10567573

B1: PCMTD2 (parent)
chain: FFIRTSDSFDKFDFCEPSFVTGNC

variants of: B1; assay: protein stability index of a GFP-peptide fusion (GPS, HEK-293T) (PSI 1-6); higher = more stable; conditions: c terminus: a fixed tail appended;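 note: lentivirally expressed fusions sorted by FACS into six bins by GFP to DsRed ratio, PSI derived from sequencing read proportions per bin multiplied by bin number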
Consider the following variants; for each one, report its protein stability index.

Sample "D10W" — what was its protein stability index?
3.23

Sample "I3H" — what was its protein stability index?
2

Sample "S6W" — what was its protein stability index?
2.61

Sample "F12T" — what was its protein stability index?
2.22

Sample "F2R" — what was its protein stability index?
1.65

Sample "C24F" — what was its protein stability index?
3.29

Sample "C15G" — what was its protein stability index?
3.49

Sample "F19G" — what was its protein stability index?
2.16

Sample "F1G" — what was its protein stability index?
2.28

Sample "T21D" — what was its protein stability index?
1.71

Sample "R4H" — what was its protein stability index?
2.45
